test: collision cross section in nitrogen (drift tube, single-field); higher = larger gas-phase ion size; details: ion type: [M+H]; ion source: ESI; ion mode: Positive;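 also: chemical standards at 10 µM analysed by drift tube IMS-QTOF MS in about 3.95 torr nitrogen, mean of duplicate injections differing ≤1%, mass error below 10 ppm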
Counter-ions that a name gives are not always drawn.
Below: a set of entries, each annotated with reported collision cross section in nitrogen.
quantity.kind: collision cross section in nitrogen (Å²)

                                    molecule                        quantity_kind  recorded_value
 0  CC1CNc2c(cccc2S(=O)(=O)N[C@@H](CCCNC(=N)N)C(=O)N2CC[C@@H](C)C[C@@H]2C(=O)O)C1 (some centres undefined)  collision cross section in nitrogen           216.7
 1                        NCCCN1CCN(CCCN)CC1  collision cross section in nitrogen           150.2
 2  CN(C)CCCN1c2ccccc2Sc2ccc(Cl)cc21 [Chlorpromazine hydrochloride]  collision cross section in nitrogen           171.2
 3  CCN(CCC#N)c1cccc(C)c1 [3-(Ethyl(3-methylphenyl)amino)propanenitrile]  collision cross section in nitrogen           144.3
 4       CN1CCC[C@H]1c1cccnc1 [(-)-Nicotine]  collision cross section in nitrogen           137.2
 5  CCCCC(O)(Cn1cncn1)c1ccc(Cl)cc1Cl (centres undefined)  collision cross section in nitrogen           173.5
 6  Cc1ccc(-c2cc(C(F)(F)F)nn2-c2ccc(S(N)(=O)=O)cc2)cc1  collision cross section in nitrogen           187.3
 7  OC(c1ccc(F)cc1)(c1cncnc1)c1ccccc1Cl (centres undefined)  collision cross section in nitrogen           171.2
 8                COc1nc(NC(C)C)nc(NC(C)C)n1  collision cross section in nitrogen           156.5
 9  CN(C)C(=O)NC1(c2ccccc2)CCN(CCC[C@]2(c3ccc(Cl)c(Cl)c3)CCCN(C(=O)c3ccccc3)C2)CC1  collision cross section in nitrogen           252.5
10  COc1cc(C(=O)NC2CCN(C)CC2)ccc1Nc1ncc2c(n1)N(C1CCCC1)CC(F)(F)C(=O)N2C  collision cross section in nitrogen           250.7
11                         CCCCCCc1ccc(N)cc1  collision cross section in nitrogen           162.8
12             COc1ccc2[nH]cc(CCNC(C)=O)c2c1  collision cross section in nitrogen           153.3
13  CC(=O)Nc1ccc(C)cc1C [N-(2,4-Dimethylphenyl)acetamide]  collision cross section in nitrogen           136.2
14               CSc1nnc(C(C)(C)C)c(=O)[nH]1  collision cross section in nitrogen           145.2
15                     CCCCc1c(C)nc(NCC)nc1O  collision cross section in nitrogen             152
16  Clc1cccc(Cl)c1NC1=NCCN1 [Clonidine hydrochloride]  collision cross section in nitrogen           146.5

---

test: collision cross section in nitrogen (drift tube, single-field); higher = larger gas-phase ion size; conditions: ion type: [M+H]; ion source: ESI; ion mode: Positive
Where a name gives a salt, the structure may show the parent alone.
quantity.kind: collision cross section in nitrogen (Å²)

                                   compound                        quantity_kind  recorded_value
0  CN(C)CCC(c1ccc(Cl)cc1)c1ccccn1 (centres undefined) [Chlorpheniramine maleate]  collision cross section in nitrogen           164.6
1  Nc1c2ccccc2nc2ccccc12 [9-Aminoacridine hydrochloride monohydrate]  collision cross section in nitrogen           138.9
2  CCOP(=O)(CN(CCO)CCO)OCC [Diethyl (N,N-bis(2-hydroxyethyl)amino)methanephosphonate]  collision cross section in nitrogen           153.9
3  COc1cccc([C@H](O)C2CCN(CCc3ccc(F)cc3)CC2)c1OC  collision cross section in nitrogen             185

Source listed as the supplement of paper PMC12317010.
